Provenance of the data: ChEMBL document CHEMBL1201862

Measured IC50 of individual entries
experimental-system: Albumin (Bos taurus, UniProt P02769)
Sequence (P02769 whole entry): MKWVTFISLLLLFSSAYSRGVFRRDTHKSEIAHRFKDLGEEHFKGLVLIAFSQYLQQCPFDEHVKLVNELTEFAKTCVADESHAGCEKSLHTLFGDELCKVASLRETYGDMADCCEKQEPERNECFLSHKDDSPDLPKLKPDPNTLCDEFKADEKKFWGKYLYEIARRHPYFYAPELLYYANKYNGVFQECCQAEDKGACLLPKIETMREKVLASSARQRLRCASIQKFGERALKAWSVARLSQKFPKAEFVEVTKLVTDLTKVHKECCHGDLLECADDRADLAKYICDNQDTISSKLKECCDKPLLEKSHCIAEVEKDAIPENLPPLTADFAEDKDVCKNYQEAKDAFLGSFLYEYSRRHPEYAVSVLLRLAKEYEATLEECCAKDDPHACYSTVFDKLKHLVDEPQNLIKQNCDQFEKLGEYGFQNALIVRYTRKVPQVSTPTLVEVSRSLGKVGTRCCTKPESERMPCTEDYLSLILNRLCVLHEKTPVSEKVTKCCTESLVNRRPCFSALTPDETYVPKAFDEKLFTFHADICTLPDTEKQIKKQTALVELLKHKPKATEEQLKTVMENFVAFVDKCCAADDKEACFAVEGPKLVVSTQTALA
method-summary: Counterscreen for inhibitors of T-cell receptor (TCR)-CD3 interaction: Fluorescence-based biochemical high throughput dose response assay to identify inhibitors of T-cell receptor (TCR)-CD3 interaction using a TAMRA-labeled BSA probe.
Assay type: functional
Active and inactive are the calls of the source. The rule behind the calls is not given here.

Solved cases below.
- compound: "CCOc1ccc(Nc2ccc(N)c(S(=O)(=O)O)c2)cc1"
  measured-parameter: "IC50"
  reported-value: "> 94.1 µM (inactive)"
- compound: "Cc1n[nH]c(S/C(=C/c2ccc(-c3ccc(C(=O)O)cc3)o2)C(=O)O)n1"
  measured-parameter: "IC50"
  reported-value: "> 94.2 µM (inactive)"
- compound: "C=CCNC(=S)NNC(=O)c1cccn(Cc2cccc(Cl)c2)c1=O"
  measured-parameter: "IC50"
  reported-value: "> 94.1 µM (inactive)"
- compound: "O=C(N/N=C/c1ccc(F)cc1)c1cc(-c2ccco2)nc2ccccc12"
  measured-parameter: "IC50"
  reported-value: "> 94.1 µM (inactive)"

Shift focus to the following entry.
Bench note, Albumin (Bos taurus, UniProt P02769): entry Cc1cc([N+](=O)[O-])cc(/C=N\NC(=O)C2COc3ccccc3O2)c1O (stereo not given) , its IC50 = > 94.2 µM (inactive)
